# TGT: Zinc finger protein mex-5 (Caenorhabditis elegans) (UniProt Q9XUB2)
# Sequence (Q9XUB2 whole entry, looked up): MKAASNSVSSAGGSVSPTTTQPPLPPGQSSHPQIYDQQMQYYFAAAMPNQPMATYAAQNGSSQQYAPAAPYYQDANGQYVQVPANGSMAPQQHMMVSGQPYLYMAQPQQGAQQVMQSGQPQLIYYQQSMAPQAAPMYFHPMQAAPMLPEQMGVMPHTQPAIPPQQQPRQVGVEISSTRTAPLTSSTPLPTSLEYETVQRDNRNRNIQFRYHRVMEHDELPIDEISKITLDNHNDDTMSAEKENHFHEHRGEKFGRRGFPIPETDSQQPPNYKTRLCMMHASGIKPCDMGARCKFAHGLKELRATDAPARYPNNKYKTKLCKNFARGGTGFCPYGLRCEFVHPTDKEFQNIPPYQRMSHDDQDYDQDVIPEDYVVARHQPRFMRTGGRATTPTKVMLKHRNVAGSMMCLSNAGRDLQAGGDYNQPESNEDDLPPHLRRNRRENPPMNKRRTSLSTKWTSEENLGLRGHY
# ASSAY INFO: MEX-5 zinc finger RNA-binding disruptors – biochemical, C. elegans, fluorescence polarization, MLPCN library, primary screen (AID 1832);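 also: 0% = DMSO and -100% = 5 µM competing unlabeled TCR2 RNA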
# TEST CONTEXT: MEX-5/FITC-TCR2 RNA binding, at 10 µM, hits give low values
The whole screen tested about 300,000 compounds, of which about 1,100 (0.37%) were called active. The entries come from a sample that favours actives as a whole.
OBSERVED PROPERTY: activity score (negative = inhibition of binding) (%)
Use % as the unit, but write only the number.

As a guide, the following entries are already answered.
COCC(=O)N=Nc1c(O)[nH]c2ccccc12	-1.5
O=C(CCCN1C(=O)/C(=C\c2ccco2)SC1=S)Nc1cccc2ccccc12	-4.74
Cc1cc(/C=C2\SC(=O)N(C)C2=O)c(C)n1-c1cccc(C(=O)O)c1	-1.93

Given Cc1ccc(Cl)cc1-c1ccc(/C=N/n2cnnc2)o1 , respond with its activity score (negative = inhibition of binding).
0.0863
